- Tested on: Meyerozyma guilliermondii
- method.notes: Tested for minimum inhibitory concentration against Candida guilliermondii 80 (C.g) at pH of 6.5.
- Format: functional
Measured MIC by item

INSERT INTO assay_data (cpd_smiles, recorded_result) VALUES
  ('CC[C@@H](C)[C@H]1C(=O)NCC(=O)N(C)[C@@H](C(C)C)C(=O)N[C@@H](Cc2ccc(OC)cc2)C(=O)O[C@H](C)C(=O)N2CCCC[C@H]2C(=O)N(C)[C@@H](C(C)C)C(=O)N[C@@H](C(C)C)C(=O)N(C)[C@@H](CC(=O)O)C(=O)N(C)[C@@H]([C@@H](C)CC)C(=O)N1C', '> 100 µg/mL'),
  ('CC[C@@H](C)[C@H]1C(=O)NCC(=O)N(C)[C@@H](C(C)C)C(=O)N[C@@H](Cc2ccc(OC)cc2)C(=O)N[C@@H](C)C(=O)N2CCCC[C@H]2C(=O)N(C)[C@@H](C(C)C)C(=O)N[C@@H](C(C)C)C(=O)N(C)[C@@H](CC(=O)O)C(=O)N(C)[C@@H]([C@@H](C)CC)C(=O)N1C', '25 µg/mL'),
  ('CC[C@@H](C)[C@H]1C(=O)NCC(=O)N(C)[C@@H](C(C)C)C(=O)N[C@@H](Cc2ccc(OCc3ccccc3)cc2)C(=O)O[C@H](C)C(=O)N2CCCC[C@H]2C(=O)N(C)[C@@H](C(C)C)C(=O)N[C@@H](C(C)C)C(=O)N(C)[C@@H](CC(=O)O)C(=O)N(C)[C@@H]([C@@H](C)CC)C(=O)N1C', '> 100 µg/mL');

# context switch: different molecule, same MIC
Provide measured MIC value, entry: CC[C@H](C)[C@H]1C(=O)NCC(=O)N(C)[C@@H](C(C)C)C(=O)N[C@@H](Cc2ccc(OC)cc2)C(=O)N[C@@H](C)C(=O)N[C@@H](C)C(=O)N2CCCC[C@H]2C(=O)N(C)[C@@H](C(C)C)C(=O)N[C@@H](C(C)C)C(=O)N(C)[C@@H](CC(=O)O)C(=O)N(C)[C@@H]([C@@H](C)CC)C(=O)N1C
> 100 µg/mL
